testDetails: fluorescence interference in NS3h assay format, artefact control for HCV NS3 helicase inhibitor project, biochemical, NIH Clinical Collection (AID 743272);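 note: HCV NS3 helicase with a Cy5 labelled single stranded DNA probe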
statedConditions: fluorescence interference counterscreen, stronger effect = lower value
The label is rule met for fluorescence ratio below 1 and rule not met for fluorescence ratio equal to or exceeding 1.

compound	label
NS(=O)(=O)c1cc2c(cc1Cl)NC=NS2(=O)=O	rule met
CCCCc1oc2ccccc2c1C(=O)c1cc(I)c(OCCN(CC)CC)c(I)c1	rule met
CC(C)(C)NCC(O)c1cc(O)cc(O)c1 (configuration not stated)	rule not met

###

testDetails: CellTiter-Glo luminescent readout of SW480 viability loss, NPC library primary (AID 1117343)
statedConditions: CellTiter-Glo luminescence; at 20 µM (top of the series)
Positions of bridges follow the written chain, without caps; N, C: chain ends. Non-standard residues stand in square brackets, D forms with d. Residues, ends and D or L forms follow the SMILES beside them. hArg = N=C(N)NCCCC[C@H](N)C(=O)O; Mpa = O=C(O)CCS
Listing of recorded viability decrease (inhibition) by entry.

compound	viability decrease (inhibition) [%]
CC1(C)O[C@@H]2C[C@H]3[C@@H]4C[C@H](F)C5=CC(=O)C=C[C@]5(C)[C@H]4[C@@H](O)C[C@]3(C)[C@]2(C(=O)CO)O1	15
OCc1ccc(Cl)cc1Cl	26.9
CC[C@@]1(O)C(=O)OCc2c1cc1n(c2=O)Cc2c-1nc1ccccc1c2/C=N/OC(C)(C)C	64.5
CCCCCCCC[N+](C)(C)CCCCCCCC	102
O=C(Nc1ccc(Cl)cc1)Nc1ccc(Cl)c(Cl)c1	116
CC(=O)O[C@]1(C(C)=O)CC[C@H]2[C@@H]3C=C(C)C4=CC(=O)CC[C@]4(C)[C@H]3CC[C@@]21C	59.6
Oc1ccccc1	42.7
Nc1ccncc1N	7.7
CCN[C@@H]1C[C@H](N)[C@@H](OC2OC(CN)=CCC2N)[C@H](O)[C@H]1O[C@H]1OC[C@](C)(O)[C@H](NC)[C@H]1O (stereo partly drawn)	-1.7
NCC(=O)O	-6.3
CCC(C)(C)C(=O)O[C@H]1C[C@@H](C)C=C2C=C[C@H](C)[C@H](CC[C@@H]3C[C@@H](O)CC(=O)O3)[C@H]21	119
Nc1ccc(O)cc1	102
CCCCOCCOC(=O)c1cccnc1	18.6
CCCOc1ccc2c(c1)CC[C@@H]1[C@@H]2CC[C@]2(C)C(OC)CC[C@@H]12 (stereo partly drawn)	103
CCCCCOc1ccc(C2SC(=O)NC2=O)cc1OCC (stereo not drawn)	6.6
CCC(C(=O)NC(=O)NC(C)=O)c1ccccc1 (stereo not drawn)	70.3
Cc1cccc(N(C)C(=S)Oc2ccc3c(c2)CCC3)c1	42.6
Nc1ccc(C(=O)N2CC3CC(CN(Cc4ccccc4)C3)C2)cc1	9.4
CCN(CC)CCOc1ccccc1C(=O)CCc1ccccc1	50.7
CCN(CC)C(=O)C1CN2CCc3cc(OC)c(OC)cc3C2CC1OC(C)=O (stereo not drawn)	6.1
NC(=O)[C@@H]1CSSCCC(=O)N[C@@H](CCCCN=C(N)N)C(=O)NCC(=O)N[C@@H](CC(=O)O)C(=O)N[C@@H](Cc2c[nH]c3ccccc23)C(=O)N2CCC[C@H]2C(=O)N1 ([Mpa][hArg]GDWPC-NH2; disulfide 1-7)	0.7
CC(C)=CCNc1ncnc2c1ncn2[C@@H]1O[C@H](CO)[C@@H](O)[C@H]1O	110
NNC(=O)c1ccncc1	10.1
CN(C)c1cc(NC(=O)CNC(C)(C)C)c(O)c2c1C[C@@H]1C[C@H]3[C@H](N(C)C)C(=O)C(C(N)=O)=C(O)[C@@]3(O)C(=O)C1=C2O	72
O=C1CCC(=O)N1CO	9.6
Oc1c(Cl)cc(Cl)c2cccnc12	111
Cc1cccc(CN2CCN(C(c3ccccc3)c3ccc(Cl)cc3)CC2)c1 (stereo not drawn)	116
COc1ccccc1N1CCN(CCCNc2cc(=O)n(C)c(=O)n2C)CC1	-11.2
Cc1nc2n(c(=O)c1CCN1CCC(C(=O)c3ccc(F)cc3)CC1)CCS2	29.6
Cc1c(C)c2c(c(C)c1OC(=O)CCC(=O)O)CC[C@@](C)(CCC[C@H](C)CCC[C@H](C)CCCC(C)C)O2	75
COC(=O)[C@H]1[C@H]2C[C@@H]3c4[nH]c5cc(OC)ccc5c4CCN3C[C@H]2C[C@@H](OC(=O)/C=C/c2ccc(O)c(OC)c2)[C@@H]1OC	142
CCCCCCCCCCCCCC[N+](C)(C)C	122
C=CCNc1nc(NCC=C)nc(N2CCN(C(c3ccc(F)cc3)c3ccc(F)cc3)CC2)n1	56.9
CC(=O)Nc1ccc(OCCOCCOc2ccc(NC(C)=O)cc2)cc1	11.3
CC(=O)OC(C)OC(=O)C(C)c1ccc(-c2ccccc2)c(F)c1 (stereo not drawn)	4.6
O=C(c1cc(O)c(O)c(O)c1)c1ccc(O)c(O)c1O	103
Nc1nc(N)c(-c2ccccc2)s1	48.5
CCCCC(O)/C=C(C)/C=C/C=C/C(=O)N1CCCC1=O (stereo not drawn)	59.3
CN(C)CCOC(c1ccccc1)c1ccc(Br)cc1 (stereo not drawn)	55.5
C[C@H](CS)C(=O)N1CCC[C@H]1C(=O)O	27.6
Cc1ccccc1C(OCCN(C)C)c1ccccc1 (stereo not drawn)	45.8
O=C(CN1CCNCC1)NC1CCCCC1	16.3
COc1ccc(S(=O)(=O)Nc2nnc(CC(C)C)s2)cc1	13.7
